# TESTED ON: T1, human serum albumin (human, UniProt P02768 25-609)
# T1 construct: also called HSA
# T1 sequence (P02768 25-609 limits assumed): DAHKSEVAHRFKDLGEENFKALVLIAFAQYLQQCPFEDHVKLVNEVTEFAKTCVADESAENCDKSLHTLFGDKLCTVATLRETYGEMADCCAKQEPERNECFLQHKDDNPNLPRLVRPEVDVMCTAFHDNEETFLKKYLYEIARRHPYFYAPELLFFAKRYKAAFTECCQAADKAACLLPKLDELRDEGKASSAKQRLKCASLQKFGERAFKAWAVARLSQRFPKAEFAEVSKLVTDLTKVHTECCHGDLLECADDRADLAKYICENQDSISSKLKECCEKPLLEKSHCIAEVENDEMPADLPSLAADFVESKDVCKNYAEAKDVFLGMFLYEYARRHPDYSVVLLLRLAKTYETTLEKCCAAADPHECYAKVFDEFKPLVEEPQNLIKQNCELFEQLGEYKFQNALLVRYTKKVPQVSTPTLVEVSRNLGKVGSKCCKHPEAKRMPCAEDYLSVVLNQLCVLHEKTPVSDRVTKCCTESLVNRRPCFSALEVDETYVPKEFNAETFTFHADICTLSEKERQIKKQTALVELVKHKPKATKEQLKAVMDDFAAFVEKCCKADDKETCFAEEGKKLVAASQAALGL
# METHOD DESCRIPTION: cradle library selection hit
EXPERIMENTAL READOUT: binding result

BINDER: SEQ ID NO 219 (designed binder) VSDVPRDLEVVAATPTSLLISWDAPAVTVRRYYIGYNWQSPAWNQEFTVPGSKSTATISGLKPGVYYQIYVAAVLRYGDYAPISINYRT
READING: binds
--
BINDER: SEQ ID NO 237 (designed binder) VSDVPRDLEVVAATPTSLLISWDAPAVTVRNYSIKYKYIPYVSHQEFTVPGSKSTATISGLKPGVTYSIRVQAVYYLIERYPISINYRT
READING: binds
--
BINDER: SEQ ID NO 194 (designed binder) PLSPPTNLHLEANPDTGVLTVSWERSTTPDITTYVIDTGAAVNYVLEEVVHADQSSCTFDNLSPGLQYSVDVVVTVWYSWYMPISDTIIP
READING: binds
